Test system: L1210 cells
Assay: Dark cytotoxicity in L1210 cells (plates wrapped in aluminum foil)
Format: cell-based
Known LD50dark of a selection of compounds

compound | LD50dark, ng/mL
COc1cc(-c2c3nc(c(-c4cc(OC)c(OC)c(OC)c4)c4ccc([nH]4)c(-c4cc(OC)c(OC)c(OC)c4)c4nc(c(-c5cc(OC)c(OC)c(OC)c5)c5ccc2[nH]5)C(O)C4O)C=C3)cc(OC)c1OC (stereo not shown) | 20000
Cc1cc(C)c(-c2c3nc(c(-c4c(C)cc(C)cc4C)c4ccc([nH]4)c(-c4c(C)cc(C)cc4C)c4nc(c(-c5c(C)cc(C)cc5C)c5ccc2[nH]5)C(O)C4O)C=C3)c(C)c1 (stereo not shown) | 18000
CC(C)(C)c1ccc(-c2c3nc(c(-c4ccc(C(C)(C)C)cc4)c4ccc([nH]4)c(-c4ccc(C(C)(C)C)cc4)c4nc(c(-c5ccc(C(C)(C)C)cc5)c5ccc2[nH]5)C(O)C4O)C=C3)cc1 (stereo not shown) | 7000
OC1c2nc(c(-c3ccccc3)c3ccc([nH]3)c(-c3ccccc3)c3nc(c(-c4ccccc4)c4ccc([nH]4)c2-c2ccccc2)C=C3)C1O (stereo not shown) | 19000
Oc1ccc(-c2c3nc(c(-c4ccc(O)cc4)c4ccc([nH]4)c(-c4ccc(O)cc4)c4nc(c(-c5ccc(O)cc5)c5ccc2[nH]5)C(O)C4O)C=C3)cc1 (stereo not shown) | 15000
OC1c2nc(c(-c3cccc(Br)c3)c3ccc([nH]3)c(-c3cccc(Br)c3)c3nc(c(-c4cccc(Br)c4)c4ccc([nH]4)c2-c2cccc(Br)c2)C=C3)C1O (stereo not shown) | 4000
O=[N+]([O-])c1cccc(-c2c3nc(c(-c4cccc([N+](=O)[O-])c4)c4ccc([nH]4)c(-c4cccc([N+](=O)[O-])c4)c4nc(c(-c5cccc([N+](=O)[O-])c5)c5ccc2[nH]5)C(O)C4O)C=C3)c1 (stereo not shown) | 15000
OC1c2nc(c(-c3ccccc3)c3ccc([nH]3)c(-c3ccccc3)c3nc(c(-c4ccccc4)c4ccc([nH]4)c2-c2ccccc2)C(O)C3O)C1O (stereo not shown) | 7500
Cc1ccc(-c2c3nc(c(-c4ccc(C)cc4)c4ccc([nH]4)c(-c4ccc(C)cc4)c4nc(c(-c5ccc(C)cc5)c5ccc2[nH]5)C(O)C4O)C=C3)cc1 (stereo not shown) | 15000
Oc1cccc(-c2c3nc(c(-c4cccc(O)c4)c4ccc([nH]4)c(-c4cccc(O)c4)c4nc(c(-c5cccc(O)c5)c5ccc2[nH]5)C(O)C4O)C=C3)c1 (stereo not shown) | 12500
OC1c2nc(c(-c3cccc(F)c3)c3ccc([nH]3)c(-c3cccc(F)c3)c3nc(c(-c4cccc(F)c4)c4ccc([nH]4)c2-c2cccc(F)c2)C=C3)C1O (stereo not shown) | 6000
O=[N+]([O-])c1ccc(-c2c3nc(c(-c4ccccc4)c4ccc([nH]4)c(-c4ccccc4)c4nc(c(-c5ccccc5)c5ccc2[nH]5)C=C4)C(O)C3O)cc1 (stereo not shown) | 18000
OC1c2cc3ccc([nH]3)c(-c3ccccc3)c3nc(cc4ccc([nH]4)c(-c4ccccc4)c(n2)C1O)C=C3 (stereo not shown) [Compound 25, diphenyl-2,3-dihydroxychlorin] | 5000
OC1c2nc(c(-c3ccc(Br)cc3)c3ccc([nH]3)c(-c3ccc(Br)cc3)c3nc(c(-c4ccc(Br)cc4)c4ccc([nH]4)c2-c2ccc(Br)cc2)C=C3)C1O (stereo not shown) | 8000
COc1cc(-c2c3nc(c(-c4ccc(O)c(OC)c4)c4ccc([nH]4)c(-c4ccc(O)c(OC)c4)c4nc(c(-c5ccc(O)c(OC)c5)c5ccc2[nH]5)C(O)C4O)C=C3)ccc1O (stereo not shown) | 4500
Oc1ccc(-c2c3nc(c(-c4ccccc4)c4ccc([nH]4)c(-c4ccccc4)c4nc(c(-c5ccccc5)c5ccc2[nH]5)C=C4)C(O)C3O)cc1 (stereo not shown) | 9000
OC1c2nc(c(-c3ccccc3F)c3ccc([nH]3)c(-c3ccccc3F)c3nc(c(-c4ccccc4F)c4ccc([nH]4)c2-c2ccccc2F)C=C3)C1O (stereo not shown) | 15000
COc1cc(OC)cc(-c2c3nc(c(-c4cc(OC)cc(OC)c4)c4ccc([nH]4)c(-c4cc(OC)cc(OC)c4)c4nc(c(-c5cc(OC)cc(OC)c5)c5ccc2[nH]5)C(O)C4O)C=C3)c1 (stereo not shown) | 12000
